molecular target: Human DNA Pol β (Homo sapiens, UniProt P06746); assay: Enzyme assay with human DNA polymerase β; assay type: biochemical
Listing of entries alongside the reported IC50.
Kindly provide the numeric value in µM only, without the unit symbol.

A selection of reference data follows.
{"Compound": "Nc1ncnc2c1ncn2C/C=C\\COC(C(=O)O)P(=O)(O)O (stereo not shown)", "Unit Of Measurement": "µM", "Reported": 454}
{"Compound": "Cc1cn(Cc2ccccc2COC(C(=O)O)P(=O)(O)O)c(=O)[nH]c1=O (stereo not shown)", "Unit Of Measurement": "µM", "Reported": 76}
{"Compound": "Cc1cn(Cc2cn(CCOC(C(=O)O)P(=O)(O)O)nn2)c(=O)[nH]c1=O (stereo not shown)", "Unit Of Measurement": "µM", "Reported": 361}
{"Compound": "O=c1[nH]c(=O)n([C@H]2C[C@H](O)[C@@H](COP(=O)(O)OP(=O)(O)OP(=O)(O)O)O2)cc1/C=C/Br [BVDU-TP, reference compound]", "Unit Of Measurement": "µM", "Reported": 26}

Kindly consider the entry below.
IN: Specify IC50 for Cc1cn(CCCCOC(C(=O)O)P(=O)(O)O)c(=O)[nH]c1=O (stereo not shown) and stop.
OUT: 450

###

Reported values of IC50 for individual entries
molecular target: HIV-1 RT (Human immunodeficiency virus type 1 group M subtype B); experiment: HIV-1 reverse transcriptase assay with homopolymeric template/primers; format: biochemical; settings: IC50 HIV-1 RT Poly rU.dA ([3H]dATP), Poly rU.dA, [3H]dATP
Expressed in µM, but write only the number.

{"Molecule": "Nc1ncnc2c1ncn2C/C=C\\COC(C(=O)O)P(=O)(O)O (centres unmarked)", "IC50 (µM)": 40}

IN: Quote IC50 reported for Nc1nc2c(ncn2C/C=C\COC(C(=O)O)P(=O)(O)O)c(=O)[nH]1 (centres unmarked) please.
OUT: 369

IN: In one line, give reported IC50 of the entry Nc1ncnc2c1ncn2[C@H]1CC[C@@H](COP(=O)(O)OP(=O)(O)OP(=O)(O)O)O1 [ddATP, reference compound] .
OUT: 0.46

###

target: HIV-1 RT (Human immunodeficiency virus type 1 group M subtype B, UniProt P03366); test: HIV-1 reverse transcriptase assay with homopolymeric template/primers; format: biochemical; settings: IC50 HIV-1 RT Poly rI.dC ([3H]dCTP)
Observable: IC50 (µM)
State the answer as a number, implicitly in µM.

IN: Specify the recorded IC50 for O=C(O)P(=O)(O)O [PFA, phosphonoformic acid, reference compound] , system: HIV-1 RT (Human immunodeficiency virus type 1 group M subtype B, UniProt P03366).
OUT: 6.8

IN: Output reported IC50 of the compound Nc1ccn([C@H]2CC[C@@H](COP(=O)(O)OP(=O)(O)OP(=O)(O)O)O2)c(=O)n1 [ddCTP, reference compound] on HIV-1 RT (Human immunodeficiency virus type 1 group M subtype B, UniProt P03366).
OUT: 3.1

###

molecular target: UniProtKB P03366; experiment: HIV-1 reverse transcriptase assay with homopolymeric template/primers; assay type: biochemical; conditions: IC50 HIV-1 RT, poly rA.dT template/primer, [3H]dTTP
Observable: IC50

Sample records with IC50:
{"Compound": "Nc1nc2c(ncn2C/C=C\\COC(C(=O)O)P(=O)(O)O)c(=O)[nH]1 (stereo not drawn)", "Assayed Target": "UniProtKB P03366", "Observable": "IC50", "Reported": "≥ 500 µM"}
{"Compound": "Cc1cn(Cc2cn(CCOC(C(=O)O)P(=O)(O)O)nn2)c(=O)[nH]c1=O (stereo not drawn)", "Assayed Target": "UniProtKB P03366", "Observable": "IC50", "Reported": "> 500 µM"}
{"Compound": "O=c1[nH]c(=O)n([C@H]2C[C@H](O)[C@@H](COP(=O)(O)OP(=O)(O)OP(=O)(O)O)O2)cc1/C=C/Br [BVDU-TP, reference compound]", "Assayed Target": "UniProtKB P03366", "Observable": "IC50", "Reported": "0.89 µM"}
{"Compound": "Cc1cn(Cc2ccccc2COC(C(=O)O)P(=O)(O)O)c(=O)[nH]c1=O (stereo not drawn)", "Assayed Target": "UniProtKB P03366", "Observable": "IC50", "Reported": "131 µM"}
{"Compound": "Nc1ccn(C/C=C\\COC(C(=O)O)P(=O)(O)O)c(=O)n1 (stereo not drawn)", "Assayed Target": "UniProtKB P03366", "Observable": "IC50", "Reported": "270 µM"}
{"Compound": "O=C(O)C(OC/C=C\\Cn1cc(F)c(=O)[nH]c1=O)P(=O)(O)O (stereo not drawn)", "Assayed Target": "UniProtKB P03366", "Observable": "IC50", "Reported": "> 500 µM"}
{"Compound": "Cc1cn(CCCCOC(C(=O)O)P(=O)(O)O)c(=O)[nH]c1=O (stereo not drawn)", "Assayed Target": "UniProtKB P03366", "Observable": "IC50", "Reported": "145 µM"}
{"Compound": "Cc1cn(C/C=C\\COC(C(=O)O)P(=O)(O)O)c(=O)[nH]c1=O (stereo not drawn)", "Assayed Target": "UniProtKB P03366", "Observable": "IC50", "Reported": "235 µM"}

IN: Note down IC50 recorded for Nc1ncnc2c1ncn2C/C=C\COC(C(=O)O)P(=O)(O)O (stereo not drawn)
OUT: 404 µM
